Target: DNA polymerase iota (Homo sapiens) (UniProt Q9UNA4)
Sequence (Q9UNA4 whole entry, looked up): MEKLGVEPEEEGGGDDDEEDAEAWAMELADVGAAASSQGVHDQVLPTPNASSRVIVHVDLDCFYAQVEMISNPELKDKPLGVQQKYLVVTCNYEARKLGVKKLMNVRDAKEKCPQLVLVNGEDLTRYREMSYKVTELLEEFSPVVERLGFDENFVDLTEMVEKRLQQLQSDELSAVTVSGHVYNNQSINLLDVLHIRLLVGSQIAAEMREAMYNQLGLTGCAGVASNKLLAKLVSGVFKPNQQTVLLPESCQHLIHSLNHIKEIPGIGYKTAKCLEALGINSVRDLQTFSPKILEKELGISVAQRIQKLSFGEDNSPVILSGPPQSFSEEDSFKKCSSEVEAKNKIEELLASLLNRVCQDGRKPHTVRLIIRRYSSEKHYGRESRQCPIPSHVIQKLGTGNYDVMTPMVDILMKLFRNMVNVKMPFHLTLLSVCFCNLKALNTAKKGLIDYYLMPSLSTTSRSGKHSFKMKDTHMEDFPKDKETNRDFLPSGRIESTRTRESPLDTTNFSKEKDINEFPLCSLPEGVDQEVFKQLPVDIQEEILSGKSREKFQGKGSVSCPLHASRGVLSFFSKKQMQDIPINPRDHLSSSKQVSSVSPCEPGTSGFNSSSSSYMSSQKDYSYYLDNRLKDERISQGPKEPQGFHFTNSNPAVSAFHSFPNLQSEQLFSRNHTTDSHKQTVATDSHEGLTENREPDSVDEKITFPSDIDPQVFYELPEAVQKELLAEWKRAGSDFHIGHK
Assay: qHTS for Inhibitors of Polymerase Iota: Confirmatory Assay for Cherry-picked Compounds (AID 720496); further: potency means the concentration at half of the fitted maximal effect
Details: Pol iota primer extension, TAMRA/BHQ fluorescence
This is one part of the list. Activity calls are given as the source filed them. The call rests on the fitted dose curve; in most records, active means well fitted inhibition curve with a large enough effect; inconclusive means small, poorly fitted or top-dose-only effect, or another doubt; inactive means no such curve, though single readings can be large or run the other way.
measuredMetric: Potency

Tell me Potency of Cc1cc(/C=N/Nc2ccc([N+](=O)[O-])cn2)c(C)n1-c1cccc(C(=O)O)c1 when tested on DNA polymerase iota (Homo sapiens) (UniProt Q9UNA4). 67 µM (active)

Give reported Potency for O=C(O)C(c1ccccc1)N1C(=O)/C(=C\c2ccc(-c3cccc(Cl)c3)o2)SC1=S (stereo not given) (DNA polymerase iota (Homo sapiens) (UniProt Q9UNA4)) 67 µM (active)

Provide Potency, recorded with DNA polymerase iota (Homo sapiens) (UniProt Q9UNA4), of CN1CCN(CCCNC(=O)c2ccc(/C=C3\Oc4ccccc4N(Cc4ccc(Cl)cc4)C3=O)cc2)CC1 42.3 µM (active)

# return Potency for Cc1ccc(-c2nn(-c3ccccc3)cc2/C=C2\SC(=S)N(CCCCCC(=O)O)C2=O)o1 , test system: DNA polymerase iota (Homo sapiens) (UniProt Q9UNA4) 29.9 µM (active)

// fetch Potency for CCOC(=O)C1=C(c2ccc(OC)cc2)C(=O)c2ccccc2C1=O ; system: DNA polymerase iota (Homo sapiens) (UniProt Q9UNA4) 75.2 µM (active)

Answer with Potency of COc1ccc(Cc2nnc(NC(=O)Cc3cccs3)s2)cc1 measured for DNA polymerase iota (Homo sapiens) (UniProt Q9UNA4). 16.8 µM (active)

State recorded Potency with DNA polymerase iota (Homo sapiens) (UniProt Q9UNA4), entry O=C(c1cc2c(s1)CCC2)N1CCN(c2ccccc2)CC1 , no comment. 37.7 µM (active)

Give DNA polymerase iota (Homo sapiens) (UniProt Q9UNA4) Potency for the following molecule: C=CC1=C(C(=O)O)N2C(=O)[C@@H](NC(=O)/C(=N/OCC(=O)O)c3csc(N)n3)[C@H]2SC1 2.67 µM (active)

Lab note: DNA polymerase iota (Homo sapiens) (UniProt Q9UNA4) assay, enter Potency for ON=C1/C(=N\O)CC2(C/C1=N/O)OCCO2 here 59.7 µM (active)

Give Potency for CC(=O)N(C1=C(Cl)C(=O)c2ccccc2C1=O)c1ccc(C(=O)O)cc1 tested on DNA polymerase iota (Homo sapiens) (UniProt Q9UNA4). 67 µM (active)

Param request: Potency | system DNA polymerase iota (Homo sapiens) (UniProt Q9UNA4) | item CN(C)CCNC(=O)c1ccc(Cl)c2cc3ccccc3nc12 67 µM (active)

Enter Potency (test system DNA polymerase iota (Homo sapiens) (UniProt Q9UNA4)) for COCCNC(=O)Nc1ccc2nc(-c3ccco3)c(-c3ccco3)nc2c1 7.52 µM (active)

Please report Potency with DNA polymerase iota (Homo sapiens) (UniProt Q9UNA4) for item CCOc1cccc2c1N[C@@H](c1ccc(C(=O)O)cc1)[C@H]1CC=C[C@@H]21 . 33.6 µM (active)

Write down measured Potency (DNA polymerase iota (Homo sapiens) (UniProt Q9UNA4)) for this molecule. O=C1COc2c1ccc(O)c2O 33.6 µM (active)

Under DNA polymerase iota (Homo sapiens) (UniProt Q9UNA4), report Potency for Cc1cc(/C=C2\SC(=O)N(C)C2=O)c(C)n1-c1cccc(C(=O)O)c1 47.4 µM (active)

Param request: Potency | system DNA polymerase iota (Homo sapiens) (UniProt Q9UNA4) | item CCc1ccc2nc3sc(C(=O)Nc4nnc(CC)s4)c(N)c3cc2c1 47.4 µM (active)

// fetch Potency; item: O=C(COC(=O)c1ccc(F)cc1F)Nc1ncccn1 ; system: DNA polymerase iota (Homo sapiens) (UniProt Q9UNA4) 21.2 µM (active)

Specify Potency for COc1ccc(Cl)cc1NC(=O)CCS(=O)(=O)c1ccc(Br)cc1 , system DNA polymerase iota (Homo sapiens) (UniProt Q9UNA4). 18.9 µM (active)

Jot down Potency (DNA polymerase iota (Homo sapiens) (UniProt Q9UNA4)) of O=C(CSc1nc2ccccc2c(=O)[nH]1)Nc1nc(-c2ccc(Br)cc2)cs1 . 21.2 µM (active)

Jot down Potency (DNA polymerase iota (Homo sapiens) (UniProt Q9UNA4)) of CSc1nnc(SCc2nc3sc(C(=O)O)c(C)c3c(=O)[nH]2)s1 . 18.9 µM (active)
